# reported GI50; entries follow
test system: EKVX; experiment: NCI tumour cell line growth inhibition, 48 h
The source made the active and inactive calls. No stated cut-off is given here; in the data, active = GI50 up to about 1.1 µM and inactive = higher.

For orientation, consider the following solved cases.
- CC1(OCc2ccccc2)C(=O)N2C1NCC2(C)C (stereo not drawn): > 100 µM (inactive)
- Cc1cc2occ(S(=O)(=O)NC(=O)Nc3ccc(Cl)cc3)c(=O)c2c(=O)o1: > 100 µM (inactive)
- CSc1nnc(COc2ccc(Cl)cc2)o1: > 100 µM (inactive)

Recorded result, `Cn1c2ccccc2n2c3ncccc3/c(=N/CCCC(=O)O)c(C#N)c12` , GI50: > 100 µM (inactive)

---

system: SF-295; assay: NCI tumour cell line growth inhibition, 48 h
Calls of active or inactive are those of the source. Rule as the data show it: active = GI50 up to about 1.1 µM and inactive = higher.
Valid outcomes are listed here; reply with one: YES (active), NO (inactive)

Ask: Assay outcome for C[N+](C)(C)CC1CCC/C1=N/O (centres undefined) : what was it?
Result: NO

Ask: Please share the test call associated with COc1cc2cc(C(=O)N3CC(CCl)c4ccc(N(C)C)cc43)[nH]c2c(OC)c1OC (centres undefined) .
Result: YES

Ask: Kindly provide the recorded test outcome for the following compound: C=C1C(OC(=O)/C=C/c2ccccc2)CC(OC(C)=O)C2(C)C1CC1CC(OC(C)=O)C(C)=C(C(OC(C)=O)C2OC(C)=O)C1(C)C (centres undefined)
Result: NO

Ask: Lab log entry: `CNC(=O)C1(N)c2ccccc2C=Cc2ccccc21` — outcome as called in the assay?
Result: NO

Ask: Outcome? Cc1cn(Cc2cnnn2CC2OC(n3cc(C)c(=O)[nH]c3=O)CC2O)c(=O)[nH]c1=O (centres undefined)
Result: NO

Ask: Given `O=C(N/C(=C\c1ccc2c(c1)OCO2)c1nc2ccccc2[nH]1)c1ccccc1` , state the outcome it received in this test.
Result: NO

Ask: How did this test come out for CC(=O)OCC(OC(C)=O)C(OC(C)=O)C(OC(C)=O)C(=O)CNn1c(-c2ccc(C)cc2)nc2ccccc2c1=O (centres undefined) ?
Result: NO

Ask: Could you kindly confirm the outcome this assay logged for C=C(Cl)/C(=C\Cl)CCC(Cl)C(C)C (centres undefined) ?
Result: NO

Ask: In this assay, the call recorded for `CSc1nc(C#N)c(/N=C\N(C)C)n1C` was what?
Result: NO

Ask: // param item: `CCOC(=O)CSc1c(C(=O)OCC)c(=O)n(-c2ccccc2)c(=S)n1-c1ccccc1` ; yields the recorded call
Result: NO

Ask: // param item: O=C(/C=C/c1ccc(O)c(O)c1)NC(COC(=O)/C=C/c1ccc(O)c(O)c1)C(=O)O (centres undefined) ; yields the recorded call
Result: NO

Ask: Name the outcome recorded for `NCCCNCCCCN(CCCN)/[N+]([O-])=N\O` in the assay.
Result: NO

Ask: Could you please tell me the result logged for COc1ccc(C(=O)C(c2ccc(OC)cc2)C2(O)C(=O)Nc3c(C)cc(Cl)cc32)cc1 (centres undefined) in this assay?
Result: NO

Ask: What classification did `COc1ccc(/C=C2\N=C(c3ccccc3)N(Nc3nnc(NN4C(=O)/C(=C/c5ccc(OC)cc5)N=C4c4ccccc4)c4ccccc34)C2=O)cc1` end up with in this test?
Result: NO

Ask: How did this test come out for C[C@H]1[C@H]2[C@H](C[C@@]3(C)C4=CC[C@H]5C(C)(C)[C@@H](OC6OCC(O)C(O)C6O)CC[C@@]56C[C@@]46CC[C@]23C)O[C@@]2(O)[C@@H]1OC(C)(C)[C@H]2O (some centres undefined) ?
Result: YES

Ask: Could you check what this test reported for `C[C@]12CCC(=O)[C@@H](CCC3=CC(=O)C=CC3=O)[C@@H]1CCC2=O` ?
Result: NO

Ask: Please let me know the test result on file for `CCn1c(=O)c2c3ccc(O)cc3oc2c2ccc(O)cc21` .
Result: NO

Ask: Kindly provide the recorded test outcome for the following compound: COC12C(COC(=O)NCCO)C3=C(C(=O)C(C)=C(N)C3=O)N1CC1NC12 (centres undefined)
Result: NO

Ask: Tell me the recorded outcome of this test for `CN1CCN(c2ccc([N+](=O)[O-])c3no[n+]([O-])c23)CC1` .
Result: YES
